assay: MTS cell viability and morphology, 5 days; assay type: cell-based, murine; conditions: mouse, Hepa 1–6-eGFP cells; 0.3 µM, MTS 5 days after start of treatment; read-out: relative cell viability
TEST READOUT: viability at 5 days, 0.3 µM (%)
Your answer should be a plain number; it is taken to be in %.

IN: Need viability at 5 days, 0.3 µM, item `COc1cc(Nc2ncc3c(n2)-c2ccc(Cl)cc2C(c2c(F)cccc2OC)=NC3)ccc1C(=O)O`
OUT: 37

* * *

test system: HEK293T-eGFP cells; test: MTT cytotoxicity assay, 72 hours; type: cell-based; conditions: HEK293T-eGFP cells, 3 days of incubation, MTT; read-out: IC50
Attribute: IC50
Your answer should be a plain number; it is taken to be in µM.

Example entries begin here.
In [3]: df
Out[3]:
                               given_smiles  test_readout  unit_descriptor  test_value
0         Cc1cc(C)cc(C(=O)NOCCCCCC(=O)NO)c1          IC50               µM        1.79
1  Cc1sc2c(c1C)C(c1ccc(Cl)cc1)=N[C@@H](CC(N)=O)c1nnc(C)n1-2          IC50               µM       0.651
2  CCn1cc(-c2cccc(C(F)(F)F)c2)c2sc(C(=N)NC3CCS(=O)(=O)CC3)cc2c1=O          IC50               µM        8.94

Please look at the following molecule next.
IN: Need IC50, item `CN(C)C/C=C/C(=O)Nc1ccc(C(=O)Nc2cccc(Nc3ncc(Cl)c(-c4c[nH]c5ccccc45)n3)c2)cc1`
OUT: 0.0371

* * *

test system: HEK293T-eGFP cells; assay: MTT cytotoxicity assay, 72 hours; type: cell-based; details: HEK293T-eGFP cells, 3 days of incubation, MTT; read-out: IC50
Attribute: IC50

Example entries begin here.
In [3]: df
Out[3]:
                              given_smiles                 tgt  test_value
0  CC(C)c1c(-c2ccccc2)[nH]c2c(C#N)cnn2c1=O  HEK293T-eGFP cells     > 10 µM
1      COc1ccc(Cn2ccc3ccc(C(=O)NO)cc32)cc1  HEK293T-eGFP cells     > 10 µM

Please look at the following compound next.
IN: Need IC50, item `Cc1sc2c(c1C)C(c1ccc(Cl)cc1)=N[C@@H](CC(=O)O)c1nnc(C)n1-2`
OUT: > 10 µM
